Provide the reported IC50 of each item.
Target Desc: T1, rat neurotensin type 2 receptor (rat), Q63384
T1 chain: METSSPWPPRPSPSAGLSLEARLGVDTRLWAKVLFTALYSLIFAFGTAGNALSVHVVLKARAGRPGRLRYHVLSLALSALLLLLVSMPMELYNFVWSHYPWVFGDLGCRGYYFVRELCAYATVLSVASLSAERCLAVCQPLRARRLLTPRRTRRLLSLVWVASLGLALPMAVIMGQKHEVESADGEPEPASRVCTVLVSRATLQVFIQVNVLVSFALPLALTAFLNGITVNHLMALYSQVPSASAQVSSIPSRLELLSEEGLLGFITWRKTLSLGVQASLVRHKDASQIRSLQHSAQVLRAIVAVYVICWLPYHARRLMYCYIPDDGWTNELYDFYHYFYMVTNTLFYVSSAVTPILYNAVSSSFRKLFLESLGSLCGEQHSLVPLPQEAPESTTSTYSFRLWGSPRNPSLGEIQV
One number for each entry, in nM.

QSEEGGSNATKKPYIL (modifications not checked) [contulakin-G (synthetic glycosylated 16-amino acid peptide, Gal(beta1->3)GalNAc(alpha1->) on Thr10)]	730

Now look at this entry.
Incoming: Recall and state the measured IC50 for QSEEGGSNATKKPYIL (modifications not checked) [non-glycosylated Thr10-contulakin-G] .
Outgoing: 170
